# Tested target: Nav1.7 voltage-gated sodium channel (Homo sapiens)
# Construct: Gene(s) encoding the full-length protein of the voltage-gated sodium channel of interest are cloned and expressed
# Test name: Whole-cell voltage clamp electrophysiology assay
# Test parameters: cells stably expressing the voltage-gated sodium channel of interest
Parameter class (string): assigned from measured IC50. Ranges: 1 = under 400 nM, 2 = from 400 nM up to 2000 nM, 3 = 2000 nM and over

Check out these entries, answers already filled in.
Smiles: COc1ncc(-c2cccc3c2C[C@H](NC(=O)c2ccnc(OCCOCC(F)(F)F)c2)CC3)cn1
Assigned category: 3

Smiles: O=C(N[C@@H]1COc2cccc(-c3ccncc3)c2C1)c1ccc(C(=O)NCC(F)(F)F)nc1
Assigned category: 2

Smiles: O=C(N[C@@H]1COc2cccc(-c3cccnc3)c2C1)c1cnc(OC2CCOCC2)cn1
Assigned category: 2

## Input Using the reported IC50, which band applies to COc1ncc(-c2cccc3c2C[C@H](NC(=O)c2ccc(C(=O)NC4CCC(F)(F)CC4)nc2)CO3)cn1 ?
## Output 1

## Input Bin this entry: COCCOc1ccc(C(=O)N[C@@H]2COc3cccc(-c4ccncc4C)c3C2)cn1
## Output 3

## Input # bin lookup: classify N#Cc1ccc(-c2cccc3c2C[C@H](NC(=O)c2ccc(OCCOCC(F)(F)F)nc2)CO3)cn1 by its IC50
## Output 1

## Input Bin this entry: COc1cc(-c2cccc3c2C[C@H](NC(=O)c2ccc(OCCC(F)(F)F)nc2)CO3)ccn1
## Output 1

## Input Band for the recorded IC50 of COc1cnc(C(=O)N[C@@H]2COc3cccc(-c4cnc(OC)nc4)c3C2)cn1 ?
## Output 3

## Input Kindly identify the class of COc1ncc(-c2cccc3c2C[C@H](NC(=O)c2ccc(OCCOCC(F)(F)F)nc2)CO3)cc1F .
## Output 1

## Input Each compound maps to one class by IC50. Which class for O=C(N[C@@H]1CCc2cccc(-c3cccnc3F)c2C1)c1ccc(OC2CCOCC2)nc1 ?
## Output 1

## Input For CCOc1ncc(-c2cccc3c2C[C@H](NC(=O)c2ccc(OCC(F)(F)F)nc2)CO3)cn1 , which IC50 bin applies?
## Output 2

## Input For COc1ncc(-c2cccc3c2C[C@H](NC(=O)c2ccc(C(=O)NCCC(C)C)nc2)CO3)cn1 , which IC50 bin applies?
## Output 1

## Input Pick a category. Item: COc1ncc(-c2cccc3c2C[C@H](NC(=O)c2ccc(OCC(F)(F)F)nc2)CO3)cc1C(=O)N(C)C
## Output 2

## Input Kindly identify the class of COc1cnc(C(=O)N[C@@H]2COc3cccc(-c4cccnc4)c3C2)cn1 .
## Output 2

## Input Textbook exercise: identify the category of the compound given here, O=C(N[C@@H]1COc2cccc(-c3ccncc3)c2C1)c1ccc(OC2CCOCC2)nc1 , according to its measured value.
## Output 1

## Input Sort into band: COc1ncc(-c2cccc3c2C[C@H](NC(=O)c2cnc(NCCC(F)(F)F)nc2)CO3)cc1F
## Output 1

## Input State the band of Cc1cc(COc2ccc(C(=O)N[C@@H]3COc4cccc(-c5ccncc5)c4C3)cn2)no1
## Output 1

## Input Record COc1ncc(-c2cccc3c2C[C@H](NC(=O)c2ccc(C(=O)N(C)CC(C)C)nc2)CO3)cn1 — which class?
## Output 2

## Input Dear colleague, I would appreciate it if you could identify the bin for COc1ncc(-c2cccc3c2C[C@@H](NC(=O)c2ccc(OC(C)C)nc2)CC3)cn1 and reply at your convenience.
## Output 3

## Input Just checking, what class would you give CNC(=O)c1cc(-c2cccc3c2C[C@H](NC(=O)c2ccc(OC4CCOCC4)nc2)CO3)cnc1OC here?
## Output 3

## Input Field: class (IC50) — entry: Cc1nn(-c2ccccc2)nc1C(=O)N[C@@H]1COc2cccc(-c3ccncc3)c2C1
## Output 2

## Input Consider Cc1noc(C)c1-c1cccc2c1C[C@H](NC(=O)c1ccc(OS(=O)(=O)C(F)(F)F)cc1)CC2 . To which IC50 class does it belong?
## Output 2

## Input # bin lookup: classify O=C(N[C@@H]1COc2cccc(-c3cncnc3)c2C1)c1ccc(OCCC(F)(F)F)nc1 by its IC50
## Output 1

## Input # bin label for O=C(N[C@@H]1COc2cccc(-c3ccncc3)c2C1)c1ccc(OCc2ccccn2)nc1
## Output 2

## Input Could you tell me which band CN(CC(F)(F)F)C(=O)c1ccc(C(=O)N[C@@H]2COc3cccc(-c4cnc(C5CC5)nc4)c3C2)cn1 belongs to?
## Output 2

* * *

# Tested target: Nav1.7 voltage-gated sodium channel (Homo sapiens, UniProt Q15858)
# Construct: Gene(s) encoding the full-length protein of the voltage-gated sodium channel of interest are cloned and expressed
# Sequence (Q15858 whole entry): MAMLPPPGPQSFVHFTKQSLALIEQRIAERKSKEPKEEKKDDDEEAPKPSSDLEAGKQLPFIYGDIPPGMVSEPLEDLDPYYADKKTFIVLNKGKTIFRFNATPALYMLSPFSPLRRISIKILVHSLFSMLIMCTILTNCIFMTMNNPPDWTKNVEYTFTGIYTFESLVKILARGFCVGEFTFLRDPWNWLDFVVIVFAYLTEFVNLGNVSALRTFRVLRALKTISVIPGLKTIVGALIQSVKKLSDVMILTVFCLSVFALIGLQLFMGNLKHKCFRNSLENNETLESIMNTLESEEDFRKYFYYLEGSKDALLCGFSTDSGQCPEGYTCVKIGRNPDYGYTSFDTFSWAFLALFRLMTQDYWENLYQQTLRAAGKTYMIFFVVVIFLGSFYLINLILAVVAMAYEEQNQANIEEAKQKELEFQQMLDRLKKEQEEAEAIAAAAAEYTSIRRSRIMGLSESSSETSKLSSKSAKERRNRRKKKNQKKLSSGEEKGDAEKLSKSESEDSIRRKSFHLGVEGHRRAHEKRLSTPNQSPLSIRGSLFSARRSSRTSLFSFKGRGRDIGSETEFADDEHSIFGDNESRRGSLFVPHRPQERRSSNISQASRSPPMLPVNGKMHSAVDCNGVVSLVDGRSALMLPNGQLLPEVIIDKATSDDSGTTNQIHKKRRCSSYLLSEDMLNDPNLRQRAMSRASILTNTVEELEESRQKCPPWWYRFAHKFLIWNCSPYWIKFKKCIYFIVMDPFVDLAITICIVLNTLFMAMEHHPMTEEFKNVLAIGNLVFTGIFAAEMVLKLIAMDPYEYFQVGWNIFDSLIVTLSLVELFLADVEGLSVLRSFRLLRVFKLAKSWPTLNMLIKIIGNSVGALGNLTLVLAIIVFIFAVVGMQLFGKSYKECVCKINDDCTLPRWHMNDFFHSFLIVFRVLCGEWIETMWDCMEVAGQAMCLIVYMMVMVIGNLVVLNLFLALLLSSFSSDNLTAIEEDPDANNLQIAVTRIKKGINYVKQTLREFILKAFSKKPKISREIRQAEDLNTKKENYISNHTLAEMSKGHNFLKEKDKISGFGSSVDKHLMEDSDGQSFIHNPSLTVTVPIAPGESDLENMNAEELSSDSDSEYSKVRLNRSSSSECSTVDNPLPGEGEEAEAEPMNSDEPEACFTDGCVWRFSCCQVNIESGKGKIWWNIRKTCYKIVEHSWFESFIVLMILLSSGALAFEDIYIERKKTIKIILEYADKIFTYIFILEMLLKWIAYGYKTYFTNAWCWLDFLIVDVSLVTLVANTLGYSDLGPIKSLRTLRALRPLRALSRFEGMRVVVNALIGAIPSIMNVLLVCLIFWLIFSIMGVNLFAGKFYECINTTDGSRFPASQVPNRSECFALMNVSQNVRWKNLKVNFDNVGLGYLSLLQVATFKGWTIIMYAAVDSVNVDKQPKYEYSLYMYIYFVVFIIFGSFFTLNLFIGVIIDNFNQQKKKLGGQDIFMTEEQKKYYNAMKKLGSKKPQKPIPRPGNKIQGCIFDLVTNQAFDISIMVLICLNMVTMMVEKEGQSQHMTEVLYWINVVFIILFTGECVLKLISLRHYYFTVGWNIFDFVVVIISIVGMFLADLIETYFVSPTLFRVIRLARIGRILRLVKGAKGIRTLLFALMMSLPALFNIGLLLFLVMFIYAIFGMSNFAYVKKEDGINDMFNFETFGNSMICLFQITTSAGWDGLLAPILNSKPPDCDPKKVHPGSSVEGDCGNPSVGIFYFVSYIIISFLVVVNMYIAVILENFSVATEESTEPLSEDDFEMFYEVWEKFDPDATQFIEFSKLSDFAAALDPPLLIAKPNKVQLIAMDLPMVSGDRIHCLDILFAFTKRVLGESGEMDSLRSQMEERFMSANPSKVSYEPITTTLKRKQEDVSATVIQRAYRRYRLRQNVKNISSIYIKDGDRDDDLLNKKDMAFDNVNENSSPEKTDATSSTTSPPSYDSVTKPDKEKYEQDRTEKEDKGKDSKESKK
# Test name: Whole-cell voltage clamp electrophysiology assay
# Test parameters: cells stably expressing the voltage-gated sodium channel of interest
# Source text: Gene(s) encoding the full-length protein of the voltage-gated sodium channel of interest are cloned and expressed under a suitable promoter in a suitable cell line, as well known in the art. […] Suitable screening assays are as follows. Electrophysiological studies can be performed using automated patch-clamp electrophysiology platforms, like IonWorks HT, IonWorks Quattro, PatchXpress, QPatch or any other suitable platform. […]
Property measured: IC50
Express the reported value numerically, then name its unit.

Record excerpt, results attached:
Smiles: COc1ccc(-c2cccc3c2C[C@H](NC(=O)c2ccc(OCCC(F)(F)F)nc2)CO3)cn1
IC50: 126 nM
//
Smiles: COc1ncc(-c2cccc3c2C[C@H](NC(=O)c2ccnc(OC(C)C)c2)CO3)cn1
IC50: 3980 nM

## Input Provide one value: measured IC50 of O=C(N[C@@H]1COc2cccc(-c3cccnc3)c2C1)c1ccc(C(=O)NCCC(F)(F)F)nc1
## Output 79.4 nM

## Input Consider the compound COc1ncccc1-c1cccc2c1C[C@H](NC(=O)c1ccc(OCCC(F)(F)F)nc1)CO2 and give its recorded IC50.
## Output 501 nM

## Input Identify measured IC50 associated with Cc1noc(C)c1-c1cccc2c1C[C@H](NC(=O)c1ccc(OC(F)(F)F)cc1)CC2
## Output 3980 nM

## Input Please give the documented IC50 of Cc1ncc(-c2cccc3c2C[C@H](NC(=O)c2ccc(OC4CCOCC4)nc2)CO3)cn1
## Output 1260 nM

## Input Supply reported IC50 belonging to this compound: CNC(=O)c1cc(-c2cccc3c2C[C@H](NC(=O)c2ccc(OC(C)C)nc2)CO3)cnc1OC
## Output 1260 nM

## Input Identify measured IC50 corresponding to COc1ncc(-c2cccc3c2C[C@H](NC(=O)c2ccc(OCCOCC(F)(F)F)nc2)CO3)cn1
## Output 39.8 nM

* * *

# Tested target: Nav1.7 voltage-gated sodium channel (Homo sapiens, UniProt Q15858)
# Construct: Gene(s) encoding the full-length protein of the voltage-gated sodium channel of interest are cloned and expressed
# Test name: Whole-cell voltage clamp electrophysiology assay
# Test parameters: cells stably expressing the voltage-gated sodium channel of interest
Property measured: pIC50
// pIC50 is dimensionless: -log10 of concentration (M)

Examples with answers:
Molecule: CC(C)Oc1ccc(C(=O)N[C@@H]2COc3cccc(-c4ccc(F)nc4)c3C2)cn1
pIC50: 6.30

Molecule: CC(C)Oc1ccc(C(=O)N[C@@H]2COc3cccc(-c4ccncc4)c3C2)cn1
pIC50: 6.80

Okay, now this molecule:
## Input Read the entry COc1ncc(-c2cccc3c2C[C@H](NC(=O)c2ccc(OC4CCOC4)nc2)CO3)cn1 (stereo partly drawn) and write its reported pIC50.
## Output 5.40

* * *

# Tested target: Nav1.7 voltage-gated sodium channel (Homo sapiens)
# Construct: Gene(s) encoding the full-length protein of the voltage-gated sodium channel of interest are cloned and expressed
# Test name: Whole-cell voltage clamp electrophysiology assay
# Test parameters: cells stably expressing the voltage-gated sodium channel of interest
Hi! Just check whether IC50 is below 1000 nM. Below gives condition met, equal or above gives condition not met.

Illustrative cases are given below, each with its answer.
Molecule: CC(C)Oc1ccc(C(=O)N[C@@H]2CCc3cccc(-c4ccncc4F)c3C2)cn1
Assigned category: condition met
//
Molecule: COc1ccc(-c2cccc3c2C[C@H](NC(=O)c2cnc(OC)cn2)CO3)cn1
Assigned category: condition not met
//
Molecule: Cc1ncc(-c2cccc3c2C[C@H](NC(=O)c2ccc(OCCOC(C)C)nc2)CO3)cn1
Assigned category: condition met

## Input Take the molecule CCc1ncc(-c2cccc3c2C[C@H](NC(=O)c2ccc(OCCOCC(F)(F)F)nc2)CO3)cn1 and say whether its IC50 is less than 1000 nM.
## Output condition met

* * *

# Tested target: Nav1.7 voltage-gated sodium channel (Homo sapiens)
# Construct: Gene(s) encoding the full-length protein of the voltage-gated sodium channel of interest are cloned and expressed
# Test name: Whole-cell voltage clamp electrophysiology assay
# Test parameters: cells stably expressing the voltage-gated sodium channel of interest
Listing of entries alongside the reported pIC50.
By convention, pIC50 is the negative base-10 log of a molar concentration.

Consider the following illustrative entries.
Smiles: Cc1cnccc1-c1cccc2c1C[C@H](NC(=O)c1ccc(OCCC(F)(F)F)nc1)CO2
Tested target: Nav1.7 voltage-gated sodium channel (Homo sapiens)
Property measured: pIC50
Value: 7.00
//
Smiles: Cc1ncc(-c2cccc3c2C[C@H](NC(=O)c2ccc(C(=O)N(C)CC(F)(F)F)nc2)CO3)cn1
Tested target: Nav1.7 voltage-gated sodium channel (Homo sapiens)
Property measured: pIC50
Value: 5.80
//
Smiles: COc1ncc(-c2cccc3c2C[C@H](NC(=O)c2ccc(OCCC(F)(F)F)nc2)CO3)cc1F
Tested target: Nav1.7 voltage-gated sodium channel (Homo sapiens)
Property measured: pIC50
Value: 6.40
//
Smiles: COc1ncc(-c2cccc3c2C[C@H](NC(=O)c2ccc(OCC(F)(F)F)nc2)CO3)cc1F
Tested target: Nav1.7 voltage-gated sodium channel (Homo sapiens)
Property measured: pIC50
Value: 6.40
//
Smiles: COc1ncc(-c2cccc3c2C[C@H](NC(=O)c2ccc(OCCCF)nc2)CO3)cn1
Tested target: Nav1.7 voltage-gated sodium channel (Homo sapiens)
Property measured: pIC50
Value: 6.40
//
Smiles: COc1ncc(-c2cccc3c2C[C@H](NC(=O)c2ccc(OCC4CCOCC4)nc2)CO3)cn1
Tested target: Nav1.7 voltage-gated sodium channel (Homo sapiens)
Property measured: pIC50
Value: 6.00
//
Smiles: COc1ncc(-c2cccc3c2C[C@H](NC(=O)c2ccc(OC4CCOCC4)nc2)CO3)cc1C(=O)N(C)C
Tested target: Nav1.7 voltage-gated sodium channel (Homo sapiens)
Property measured: pIC50
Value: 5.10
//
Smiles: O=C(N[C@@H]1COc2cccc(-c3ccccn3)c2C1)c1ccc(OC(F)(F)F)cc1
Tested target: Nav1.7 voltage-gated sodium channel (Homo sapiens)
Property measured: pIC50
Value: 5.80

## Input Specify pIC50 for COc1ccc(-c2cccc3c2C[C@H](NC(=O)c2ccc(OC4CCOCC4)nc2)CO3)cn1 and stop.
## Output 6.50

## Input Identify measured pIC50 associated with COc1ncc(-c2cccc3c2C[C@H](NC(=O)c2ccc(C(=O)NCCC(F)(F)F)nc2)CO3)cn1
## Output 6.50

## Input Please indicate pIC50 recorded for CCc1ncc(-c2cccc3c2C[C@H](NC(=O)c2ccc(OCC(F)(F)F)nc2)CO3)cn1
## Output 6.80

## Input Retrieve pIC50 measured for COCCOc1ccc(C(=O)N[C@@H]2CCc3cccc(-c4cccnc4F)c3C2)cn1 and print it.
## Output 5.50

## Input For COc1ncc(-c2cccc3c2C[C@H](NC(=O)c2cnc(OC(C)C)nc2C)CO3)cn1 , write its pIC50.
## Output 5.30

Where these numbers come from: patent US8143408B2
